- systemUnderTest: T1, Mouse CD79A+CD79B antigen (mouse) (UniProt P11911)
- T1 sequence (looked up) 1: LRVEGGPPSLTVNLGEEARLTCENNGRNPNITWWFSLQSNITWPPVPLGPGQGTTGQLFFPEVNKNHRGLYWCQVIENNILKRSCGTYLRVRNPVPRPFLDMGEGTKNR
- T1 sequence (looked up) 2: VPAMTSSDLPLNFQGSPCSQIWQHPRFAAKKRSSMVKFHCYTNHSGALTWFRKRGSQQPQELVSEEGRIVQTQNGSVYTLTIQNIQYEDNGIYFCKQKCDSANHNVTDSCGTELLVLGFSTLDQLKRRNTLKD
- assayExplanation: ELISA on coated antigen, anti-myc detection; 2ng antibody added
Reported OD450 nm values are given for each entry in this list.
Answer format: numeric, OD450 implied, no suffix.

These solved cases illustrate the format of a correct answer.
- binder: "anti-CD79B single-domain antibody JYB10 (VHH, Alpaca VHH from a phage library; ELISA detected with an anti-myc antibody; a myc tag is not described; not shown: His-tag protein at the C-terminal end) VHH: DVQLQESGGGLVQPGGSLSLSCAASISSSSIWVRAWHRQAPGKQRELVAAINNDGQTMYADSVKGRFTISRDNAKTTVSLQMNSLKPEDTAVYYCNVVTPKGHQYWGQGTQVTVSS"
  measuredNumber: 0.0584
- binder: "anti-CD79B single-domain antibody JYB14 (VHH, Alpaca VHH from a phage library; ELISA detected with an anti-myc antibody; a myc tag is not described; not shown: His-tag protein at the C-terminal end) VHH: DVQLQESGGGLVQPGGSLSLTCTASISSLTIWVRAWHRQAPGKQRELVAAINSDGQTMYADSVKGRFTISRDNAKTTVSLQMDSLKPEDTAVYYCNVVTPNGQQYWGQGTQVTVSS"
  measuredNumber: 0.0584
- binder: "anti-CD79B single-domain antibody JYB8 (VHH, not shown: small tags and cut ends) VHH: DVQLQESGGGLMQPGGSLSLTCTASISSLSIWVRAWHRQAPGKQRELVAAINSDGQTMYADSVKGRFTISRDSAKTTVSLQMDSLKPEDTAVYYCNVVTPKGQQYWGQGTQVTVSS"
  measuredNumber: 0.0543
- binder: "anti-CD79B single-domain antibody JYB11 (VHH, Alpaca VHH from a phage library; ELISA detected with an anti-myc antibody; a myc tag is not described; not shown: His-tag protein at the C-terminal end) VHH: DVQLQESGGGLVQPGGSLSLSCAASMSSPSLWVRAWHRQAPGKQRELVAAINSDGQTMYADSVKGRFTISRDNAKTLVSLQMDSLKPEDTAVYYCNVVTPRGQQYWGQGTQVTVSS"
  measuredNumber: 0.0582

// fetch OD450 nm given entry anti-CD79B single-domain antibody JYB4 (VHH, Alpaca VHH from a phage library; not shown: His-tag protein at the C-terminal end) VHH: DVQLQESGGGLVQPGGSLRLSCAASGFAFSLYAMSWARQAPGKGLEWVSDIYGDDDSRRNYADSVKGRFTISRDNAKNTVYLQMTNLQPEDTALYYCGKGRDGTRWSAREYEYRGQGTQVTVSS 0.0574
